test system: barnyardgrass (Echinochloa crus-galli); test: Test B flooded paddy test; type: in vivo; details: Echinochloa crus-galli, Flood, 250 g ai/ha; scale of 0 to 100 where 0 is no effect and 100 is complete control; read-out: Barnyardgrass plant response rating
Assay readout: pest or weed control at 250 g/ha
Provide the measurement as a number trailed by its unit.

molecule="Cc1ccc([C@H]2CN(C)C(=O)[C@@H]2C(=O)Nc2cccc(F)c2C)cc1C [Compound 732]" recorded_value=45%

I'm hoping you can list pest or weed control at 250 g/ha for every molecule here, please.
1. Cc1cc(C)cc([C@H]2CN(C)C(=O)[C@@H]2C(=O)Nc2cccc(F)c2F)c1 [Compound 911]
2. Cc1c(F)ccc([C@H]2CN(C)C(=O)[C@@H]2C(=O)Nc2cccc(F)c2F)c1F [Compound 834]
3. O=C1NC[C@H](c2ccc(C(F)(F)F)cc2)[C@H]1C(=O)Nc1ccccc1C1CC1 [Compound 746]
4. COc1c(F)ccc([C@H]2CN(C)C(=O)[C@@H]2C(=O)Nc2ccccc2F)c1Cl [Compound 892]
5. O=C1NC[C@H](c2cc(F)c(C(F)(F)F)c(F)c2)[C@H]1C(=O)Nc1cccc(F)c1F [Compound 838]
6. COc1cccc(C2CN(C)C(=O)C2C(=O)Nc2cccc(F)c2F)c1 (stereo not shown) [Compound 886]
7. CC(C)Oc1ccc([C@H]2CN(C)C(=O)[C@@H]2C(=O)Nc2ccccc2F)cc1 [Compound 952]

**Result**
1: 80%; 2: 60%; 3: 0%; 4: 65%; 5: 40%; 6: 75%; 7: 0%

I'm hoping you can list pest or weed control at 250 g/ha for every molecule here, please.
1. O=C1NCC[C@H](c2ccc(Cl)cc2)[C@H]1C(=O)Nc1cccc(F)c1F [Compound 795]
2. CN1C[C@H](c2cc(F)cc(C(F)(F)F)c2)[C@@H](C(=O)Nc2cccc(Cl)c2F)C1=O [Compound 995]
3. CN1C[C@H](c2cc(C(F)(F)F)cs2)[C@@H](C(=O)Nc2ccccc2F)C1=O [Compound 962]

**Result**
1. 0%
2. 25%
3. 60%

I'm hoping you can list pest or weed control at 250 g/ha for every molecule here, please.
1. CN1C[C@H](c2cccc(OC(F)(F)C(F)F)c2)[C@@H](C(=O)Nc2ccccc2[S+](C)[O-])C1=O (stereo partly shown) [Compound 863]
2. C=CCN1C[C@H](c2ccc(OC)c(F)c2)[C@@H](C(=O)Nc2ccccc2C(F)(F)F)C1=O [Compound 723]
3. CS(=O)(=O)c1ccccc1NC(=O)[C@H]1C(=O)N(C2CC2)CC[C@@H]1c1cccc(C(F)(F)F)c1 [Compound 927]
4. O=C1NC[C@H](c2cc(F)c(C(F)(F)F)c(F)c2)[C@H]1C(=O)Nc1ccccc1F [Compound 837]
5. CCc1ccccc1NC(=O)[C@H]1C(=O)N(C)C[C@@H]1c1ccc(C(F)(F)F)cc1 [Compound 935]

**Result**
1. 0%
2. 0%
3. 0%
4. 0%
5. 0%

----------
tested on: ivy-leaved morning glory (Ipomoea hederacea); assay: Test G Pre-Emergence Protocol; format: in vivo; settings: Ipomoea, pre-emergence, 312 h, 62.5 g ai/ha, evaluated after 13 days, 100=total damage to plant, 0=no damage to plant, read-out: Morningglory, Ivy-leaved damage rating
Assay readout: pest or weed control at 62.5 g/ha
Provide the measurement as a number trailed by its unit.

Below: 2 compounds and their reported pest or weed control at 62.5 g/ha.
compound="CN1C[C@H](c2ccc(C(F)(F)F)c(C(F)(F)F)c2)[C@@H](C(=O)Nc2ccccc2S(C)(=O)=O)C1=O (racemic) [Compound 1799]" target_or_test_system="ivy-leaved morning glory (Ipomoea hederacea)" assay_readout="pest or weed control at 62.5 g/ha" recorded_value=0%
compound="COc1cc(F)cc(C2CN(C)C(=O)C2C(=O)Nc2cccc(F)c2F)c1 (stereo not drawn) [Compound 1699]" target_or_test_system="ivy-leaved morning glory (Ipomoea hederacea)" assay_readout="pest or weed control at 62.5 g/ha" recorded_value=10%

Now look at this one.
**Query** Could you tell me which pest or weed control at 62.5 g/ha is on file for CN1C[C@H](c2cc(F)cc(F)c2)[C@@H](C(=O)Nc2cnccc2C(F)(F)F)C1=O (racemic) [Compound 1741] ?
**Result** 0%
